// provenance: PubChem BioAssay (NCI)

# measurement-protocol: NCI Yeast Anticancer Drug Screen. Data for the bub3 strain (AID 167)
# assay-conditions: S. cerevisiae bub3 mutant strain, at 5.0 µM (retest, dose inferred, filed as 0.5), hits give high values
# Method: Growth inhibition of yeast strains with defined genetic alterations is measured as a screen for potential anti-cancer activity. Selected strains with alterations in DNA damage repair or cell cycle control were exposed to compounds and growth inhibition was measured relative to vehicle treated controls. The strain used in this assay is bub3
This is part of a sample that, as a whole, favours compounds with a hit. Of some 79,000 tested, about 15% had one in any assay.
Measured growth inhibition values are reported for all entries that follow.

| compound | unit-annotation | growth inhibition |
| --- | --- | --- |
| NC(=S)N/N=C\c1nccc2c(N)cccc12 | % | 0 |
| COc1ccc(N=NC(C#N)C#N)cc1 | % | 1 |
| CCOC(=O)C1=NN(c2ccccc2)C(=O)/C1=C\N1C(=O)/C(=C/c2cccc(O)c2)SC1=S | % | 4 |
| CN(C)c1ccc(/C=C/c2sc3ccc4ccccc4c3[n+]2C)cc1 | % | 99 |
| CCCCOS(=O)(=O)c1ccccc1 | % | -23 |
| CC1=CC[C@@H]2[C@@H](CC[C@@]2(C)O)C(C)(C)[C@H]1CC[C@@H]1[C@@]2(C)CCC(=O)C(C)(C)O[C@@H]2CC[C@]1(C)O | % | 10 |
| O=C1c2ccccc2Cc2cccc(Cl)c21 | % | 1 |
| CN(C)c1ccc(C(C#N)(c2ccccc2)c2ccc(N(C)C)cc2)cc1 | % | 80 |
| COC(=O)[C@]1(C)CCC[C@@]2(C)[C@@H]3C[C@@H]4[C@H]5C[C@@]3(CC[C@@H]21)C[C@@]45C | % | 32 |
| CCCCCCCCCCCC1=NCCCN1CCCC | % | 22 |
| O=Cc1ccc(-c2ccc(-c3ccc(CO)s3)o2)s1 | % | 21 |
| O=C(O)CCCOc1cc(-c2ccccc2F)nc2cc3c(cc12)OCO3 | % | 9 |
| C=C(CO)C(=O)OC1CC(=C)C2CC(O)C(C)C2C2OC(=O)C(=C)C12 (stereo not given) | % | 9 |
| Cc1cc(Br)c2nsnc2c1[N+](=O)[O-] | % | 20 |
| C=C1C(=O)OC2CC3(C)CCCC(C)C3=CC12 (stereo not given) | % | 14 |
| Cc1cc(=O)oc2cc(O)cc(O)c12 | % | -3 |
| Cc1cc2cccnc2c2ncccc12 | % | 21 |
| Nc1nc(N)c2cc(Sc3cccc(C(F)(F)F)c3)ccc2n1 | % | 17 |
| Oc1ccc2c(c1)CCc1ccccc1-2 | % | 83 |
| Oc1ccc(Cc2ccc(Cl)cc2)c(O)c1 | % | -2 |
| C1CCC(CCCc2nn[nH]n2)CC1 | % | 1 |
| O=C(Nc1ccc(Cl)c(Cl)c1)Nc1ccccc1O | % | 46 |
| COc1ccc2c(c1)C(N)=C(c1ccccc1)C2=O | % | 24 |
| CCN1CCCC(Nc2cc(C)nc(/N=C(/N)Nc3ccc(Cl)c(Cl)c3)n2)C1 (stereo not given) | % | 29 |
| Cc1cc(N/N=C/c2ccccn2)nc2ccccc12 | % | 8 |

###

Catalogue of growth inhibition values
# measurement-protocol: NCI Yeast Anticancer Drug Screen. Data for the mec2-1 strain (AID 157)
# assay-conditions: S. cerevisiae mec2-1 strain, at 50.0 µM (retest, dose inferred, filed as 5.0), hits give high values
About 79,000 compounds went through this panel and 15% of them were active in at least one assay; those are over-represented in the sample as a whole. The source made the active and inactive calls. No stated cut-off is given here; in the data, active means growth inhibition above about 70%; inactive means the rest. Where a SMILES comes first, the peptide text is derived from it. [ ]: non-standard residue; d: D form. ξ: configuration not given here. ξD = NC(CC(=O)O)C(=O)O
measure: growth inhibition

| compound | measure | result |
| --- | --- | --- |
| O=C(O)CCCOc1cc(-c2ccccc2F)nc2cc3c(cc12)OCO3 | growth inhibition | 31% (inactive) |
| COc1ccc(C(Cn2ccnc2)Sc2ccc(Cl)c(Cl)c2)cc1 (configuration not stated) | growth inhibition | 97% (active) |
| O=C(Nc1ccc(Cl)c(Cl)c1)Nc1ccccc1O | growth inhibition | 35% (inactive) |
| CCCCCCCCCCCCNCCCc1ccccc1 | growth inhibition | 99% (active) |
| COc1ccc(N=CC2CCCCC2=O)c([N+](=O)[O-])c1 (configuration not stated) | growth inhibition | 42% (inactive) |
| COc1cccc(NC(=O)C(C#N)=C(SC)SC)c1 | growth inhibition | 92% (active) |
| NCC(=O)NC(CC(=O)O)C(=O)O (configuration not stated) (H-Gly-[ξD]-OH) | growth inhibition | -12% (inactive) |
| O=C(C[P+](c1ccccc1)(c1ccccc1)c1ccccc1)c1ccccc1 | growth inhibition | 14% (inactive) |
| COCc1c(C#N)c(Cl)nc(C)c1[N+](=O)[O-] | growth inhibition | 90% (active) |
| OCCOSCCO | growth inhibition | -4% (inactive) |
| COc1cc([C@@H]2c3cc4c(cc3[C@H](OC3OC5COC(c6ccccc6)OC5C(O)C3O)[C@H]3COC(=O)[C@H]23)OCO4)cc(OC)c1OC (some centres not stated) | growth inhibition | 77% (active) |
| COc1ccc2nc3c4c(nccc4c2c1)-c1ncccc1C3=O | growth inhibition | 98% (active) |
| [Cl-].[Rh+3].c1ccc(-c2ccnc3c2ccc2c(-c4ccccc4)ccnc23)cc1.c1ccc(-c2ccnc3c2ccc2c(-c4ccccc4)ccnc23)cc1.c1ccc(-c2ccnc3c2ccc2c(-c4ccccc4)ccnc23)cc1 | growth inhibition | 26% (inactive) |
| CC1C(c2ccccc2)OCCN1C(=S)Nc1ccc(S(=O)(=O)N2CCCCC2)cc1 (configuration not stated) | growth inhibition | 84% (active) |
| C[n+]1ccccc1C[n+]1ccccc1 | growth inhibition | 17% (inactive) |
| N#C/C(=N\Nc1ccc(Cl)cc1)C(=O)C1CC1 | growth inhibition | 46% (inactive) |
| CCOC(=O)C1C(C(C)C)C2(C#N)C(=N)OC1(C)C2(C#N)C#N (configuration not stated) | growth inhibition | 53% (inactive) |
| CC1=NN(c2ccccc2)C(=O)C1(Br)Br | growth inhibition | 71% (active) |
| CCCOC1N(c2ccc(C)cc2)NC(=O)C1(C)C (configuration not stated) | growth inhibition | 94% (active) |
| O=C1C=CC(=O)N1C1CCCCCCCCCCC1 | growth inhibition | 58% (inactive) |
| O=[N+]([O-])c1ccc([I+]c2ccccc2)cc1 | growth inhibition | 95% (active) |
| NC(=S)N/N=C\c1nccc2c(N)cccc12 | growth inhibition | 89% (active) |
| Cc1cc2cccnc2c2ncccc12 | growth inhibition | 99% (active) |
| OC(c1cc(C23CC4CC(CC(C4)C2)C3)nc2c(Cl)cc(Cl)cc12)C1CCCCN1 (configuration not stated) | growth inhibition | 99% (active) |
| CCOC(=O)C1=C(C(=O)c2ccccc2)C(c2cccc([N+](=O)[O-])c2)C(C(=O)c2ccccc2)=C(C(=O)OCC)N1 | growth inhibition | 33% (inactive) |
| CN(C)c1ccc(/C=C/c2sc3ccc4ccccc4c3[n+]2C)cc1 | growth inhibition | 98% (active) |
| CC1=C(/C=C/C(C)=C/C(=O)O)C(C)(C)CCC1 | growth inhibition | 47% (inactive) |
| CCOC(=O)c1[nH]c(C#N)c(C(=O)OCC)c1C | growth inhibition | 23% (inactive) |
| CCCc1cc(=O)oc2c3c(c4c(c12)OC(C)(C)CC4)OC(C)[C@H](C)[C@@H]3O (some centres not stated) | growth inhibition | 92% (active) |
| CCOc1ccc2c(c1)/C(=C\C=C\C1CC(C)C3CC(OCC)CCC3N1CC)CC(C)N2CC (configuration not stated) | growth inhibition | 88% (active) |
| CCOC(=O)c1cc(CC)sc1NC(=O)CC(C)=O | growth inhibition | 53% (inactive) |
| CCCCCCC1N=C(N)N=C(N)N1c1cccc(Cl)c1 (configuration not stated) | growth inhibition | 56% (inactive) |
| NNc1ccc(Cl)cc1Cl | growth inhibition | 99% (active) |
| O=[N+]([O-])/C=C/c1cccs1 | growth inhibition | 99% (active) |
| O=C(O)c1cc2c(s1)C(=O)c1sccc1C2=O | growth inhibition | 69% (inactive) |
| CC1(C)CCCC2=C1C(=O)N(SC(Cl)(Cl)Cl)C2=O | growth inhibition | 99% (active) |
| O=Cc1ccc(O)c(O)c1O | growth inhibition | 54% (inactive) |
| Cc1c(O)ccc(SC#N)c1C | growth inhibition | 74% (active) |
| COc1ccc2c(c1)C(OC)C1c3c(cc4c(c3-2)OCO4)CCN1C (configuration not stated) | growth inhibition | 27% (inactive) |
| CCCCCCCCCCCC[n+]1ccc2ccccc2c1 | growth inhibition | 100% (active) |
| O=[N+]([O-])c1ccc(C(Br)c2ccc([N+](=O)[O-])cc2)cc1 | growth inhibition | 100% (active) |
| O=Cc1ccc(-c2ccc(-c3ccc(CO)s3)o2)s1 | growth inhibition | 45% (inactive) |
| O=C(Cc1nc2cc(Cl)c(Cl)cc2nc1CC(=O)c1ccccc1)c1ccccc1 | growth inhibition | 76% (active) |
| O=C1C=C(Cl)C(=O)c2ccccc21 | growth inhibition | 100% (active) |
| CCC[CH2][Sn]1([CH2]CCC)[O]C2C(CO)OC(n3ccc(N)nc3=O)C2[O]1 (configuration not stated) | growth inhibition | 98% (active) |
| O=Nc1ccc2ccccc2c1O | growth inhibition | 88% (active) |
| O=C1C=CC(=O)N1c1ccc(O)cc1 | growth inhibition | 98% (active) |
